Hello, the source for this data is ChEMBL document CHEMBL1201862, in case you need it.

System name: Methionyl-tRNA synthetase, putative (Trypanosoma brucei brucei)
Sequence (Q38C91 whole entry): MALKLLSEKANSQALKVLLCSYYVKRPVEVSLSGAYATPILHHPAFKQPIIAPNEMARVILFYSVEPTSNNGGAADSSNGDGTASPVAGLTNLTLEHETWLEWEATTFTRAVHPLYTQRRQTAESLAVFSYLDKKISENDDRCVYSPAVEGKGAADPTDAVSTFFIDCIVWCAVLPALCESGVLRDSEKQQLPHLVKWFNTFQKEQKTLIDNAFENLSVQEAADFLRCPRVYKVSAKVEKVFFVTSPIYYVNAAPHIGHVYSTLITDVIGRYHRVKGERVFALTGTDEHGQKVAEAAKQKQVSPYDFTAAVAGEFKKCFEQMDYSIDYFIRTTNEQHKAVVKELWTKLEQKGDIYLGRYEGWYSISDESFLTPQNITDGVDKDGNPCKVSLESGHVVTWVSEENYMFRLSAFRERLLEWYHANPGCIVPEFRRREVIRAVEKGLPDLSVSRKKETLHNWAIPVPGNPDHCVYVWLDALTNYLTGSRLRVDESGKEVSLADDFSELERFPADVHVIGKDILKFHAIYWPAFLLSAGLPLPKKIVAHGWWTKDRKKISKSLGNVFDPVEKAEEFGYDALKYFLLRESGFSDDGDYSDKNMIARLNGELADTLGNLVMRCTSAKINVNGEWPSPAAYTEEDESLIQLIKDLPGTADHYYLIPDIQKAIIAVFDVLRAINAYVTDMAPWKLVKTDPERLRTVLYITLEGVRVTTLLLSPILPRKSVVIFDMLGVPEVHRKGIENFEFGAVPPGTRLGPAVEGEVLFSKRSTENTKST
Assay type: functional, Trypanosoma brucei brucei strain 927/4 GUTat10.1
The source made the active and inactive calls.
One label from this list, please: active, inactive

Before answering, review these 3 worked examples.
molecule=N#C/C(=N\Nc1cc(Cl)cc(Cl)c1)c1nnc2n1CCCCC2 answer_label=inactive
molecule=O=C(C/C=N\OCc1ccc([N+](=O)[O-])cc1)Nc1ccc(Br)cc1 answer_label=active
molecule=CO/N=C(\c1nonc1N)N1CCN(c2ccc(Cl)cc2[N+](=O)[O-])CC1 answer_label=inactive

Now for a further compound.
Just curious, what result did CN(Cc1cc(Cl)cc(Cl)c1)[C@H]1C[C@H]2c3[nH]c4ccccc4c3CCN2C(=O)[C@H]1CO get here?
active
